Measured mass density accompanies every entry in the list below.
Settings: 373.15 K; 10000 kPa; Liquid
value type: mass density (kg/m3)

>>> assay_result("CCCCCCn1cc[n+](C)c1.F[P-](F)(F)(F)(F)F [1-hexyl-3-methylimidazolium hexafluorophosphate]")
1240.3
>>> assay_result("CCCCCCCC[n+]1ccn(C)c1.F[B-](F)(F)F [1-methyl-3-octylimidazolium tetrafluoroborate]")
1058.5
>>> assay_result("CCCCn1cc[n+](C)c1C.F[P-](F)(F)(F)(F)F [1-butyl-2,3-dimethylimidazolium hexafluorophosphate]")
1296.7
>>> assay_result("CCCCCCCC[n+]1ccn(C)c1.F[P-](F)(F)(F)(F)F [1-octyl-3-methylimidazolium hexafluorophosphate]")
1186.1
>>> assay_result("CCCCn1cc[n+](C)c1.O=S(=O)([O-])C(F)(F)F [1-butyl-3-methylimidazolium trifluoromethanesulfonate]")
1246.6
>>> assay_result("CCCCn1cc[n+](C)c1.F[B-](F)(F)F [1-butyl-3-methylimidazolium tetrafluoroborate]")
1153.6
